# credit: BigSolDB 2.1

# MEASUREMENT_SETUP: in cyclohexane, 283.15 K
ASSAY_METRIC: solubility (mole fraction)
# answer = number (no unit)

**Query** Can you look up the measured solubility (mole fraction) of `Cc1c(Cl)cccc1Nc1ccccc1C(=O)O` for me?
**Result** 2.97e-05

----------
# MEASUREMENT_SETUP: in n-heptanol, 323.15 K
ASSAY_METRIC: solubility (mole fraction)
// response body must contain only the number

**Query** Requested field: solubility (mole fraction). Item: `Cc1c(Cl)cccc1Nc1ccccc1C(=O)O`
**Result** 0.0306

----------
# MEASUREMENT_SETUP: in DMSO, 318.15 K
ASSAY_METRIC: solubility (mole fraction)
Reply briefly: the number, and no unit.

**Query** Request the reported solubility (mole fraction) associated with `Cc1c(Cl)cccc1Nc1ccccc1C(=O)O`
**Result** 0.042

----------
# MEASUREMENT_SETUP: in n-heptanol, 308.15 K
ASSAY_METRIC: solubility (mole fraction)

**Query** Suppose we examine the compound `Cc1c(Cl)cccc1Nc1ccccc1C(=O)O` ; what solubility (mole fraction) value has been reported?
**Result** 0.0171

----------
# MEASUREMENT_SETUP: in 1,4-dioxane, 313.15 K
ASSAY_METRIC: solubility (mole fraction)
Reply briefly: the number, and no unit.

**Query** What does the data say about its solubility (mole fraction)? Entry: `Cc1c(Cl)cccc1Nc1ccccc1C(=O)O`
**Result** 0.0492

----------
# MEASUREMENT_SETUP: in ethyl acetate, 318.15 K
ASSAY_METRIC: solubility (mole fraction)
Answer as a number with no unit attached.

**Query** Fill in: solubility (mole fraction) of `Cc1c(Cl)cccc1Nc1ccccc1C(=O)O` is ___
**Result** 0.0314

----------
# MEASUREMENT_SETUP: in 1,4-dioxane, 293.15 K
ASSAY_METRIC: solubility (mole fraction)
Enter a number only.

**Query** Requested read-out: solubility (mole fraction). Entry: `Cc1c(Cl)cccc1Nc1ccccc1C(=O)O`
**Result** 0.032

----------
# MEASUREMENT_SETUP: in ethylene glycol, 313.15 K
ASSAY_METRIC: solubility (mole fraction)
// return a plain number; no unit text

**Query** Which measured solubility (mole fraction) value corresponds to `Cc1c(Cl)cccc1Nc1ccccc1C(=O)O` ?
**Result** 0.000546

----------
# MEASUREMENT_SETUP: in n-pentanol, 318.15 K
ASSAY_METRIC: solubility (mole fraction)
Just the number, please.

**Query** Give its solubility (mole fraction) value. Item: `Cc1c(Cl)cccc1Nc1ccccc1C(=O)O`
**Result** 0.0169

----------
# MEASUREMENT_SETUP: in n-heptanol, 303.15 K
ASSAY_METRIC: solubility (mole fraction)
Respond using a number only.

**Query** Requested read-out: solubility (mole fraction). Entry: `Cc1c(Cl)cccc1Nc1ccccc1C(=O)O`
**Result** 0.0142

----------
# MEASUREMENT_SETUP: in n-pentyl acetate, 313.15 K
ASSAY_METRIC: solubility (mole fraction)
Give the figure only, with no unit attached.

**Query** Look at this molecule and give its reported solubility (mole fraction). `Cc1c(Cl)cccc1Nc1ccccc1C(=O)O`
**Result** 0.0218

----------
# MEASUREMENT_SETUP: in ethylene glycol, 288.15 K
ASSAY_METRIC: solubility (mole fraction)

**Query** Field request: solubility (mole fraction) | item: `Cc1c(Cl)cccc1Nc1ccccc1C(=O)O`
**Result** 0.000132
